Tested System: Retinoic acid receptor RXR-alpha (Homo sapiens)
Sequence (P19793 whole entry): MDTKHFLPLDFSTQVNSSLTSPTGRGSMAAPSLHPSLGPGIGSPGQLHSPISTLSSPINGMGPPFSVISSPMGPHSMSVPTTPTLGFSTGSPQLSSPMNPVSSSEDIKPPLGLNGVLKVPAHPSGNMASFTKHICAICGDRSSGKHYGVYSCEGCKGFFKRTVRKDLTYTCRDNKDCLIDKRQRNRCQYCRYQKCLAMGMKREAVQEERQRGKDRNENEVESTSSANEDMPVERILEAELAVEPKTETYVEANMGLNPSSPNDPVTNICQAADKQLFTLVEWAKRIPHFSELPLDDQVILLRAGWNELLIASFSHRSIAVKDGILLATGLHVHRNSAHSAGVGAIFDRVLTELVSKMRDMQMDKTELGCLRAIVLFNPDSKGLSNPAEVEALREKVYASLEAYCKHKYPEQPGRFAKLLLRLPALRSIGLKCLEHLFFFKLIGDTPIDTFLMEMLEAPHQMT
Experiment Description: Activity at RXRalpha by GAL4DNA cotransfection assay
Observable: EC50 (nM)

Below are worked cases with known answers.
# Smiles String, Tested System, Unit Label, EC50
measured = [
    ("Cc1cc2c(cc1-c1cc(/C=C/C(=O)O)ccc1OC(F)(F)F)N(CC(F)(F)F)C(=O)CC2(C)C", "Retinoic acid receptor RXR-alpha (Homo sapiens)", "nM", 1.8),
    ("CCN1C(=O)CC(C)(C)c2cc(C)c(-c3cc(/C=C4\\SC(=O)NC4=O)ccc3OC(F)(F)F)cc21", "Retinoic acid receptor RXR-alpha (Homo sapiens)", "nM", 0.9),
]

P = CCCN1C(=O)CC(C)(C)c2cc(C)c(-c3cc(/C=C/C(=O)O)ccc3OC(F)(F)F)cc21
Q = CCN1C(=O)CC(C)(C)c2cc(C)c(-c3ccc(/C=C/C(=O)O)s3)cc21
# input Sort P and Q by EC50 descending and give the first. Bench note: the answer is the label of the chosen record.
# output Q
